// TGI lookup, one value per entry
Tested on: MDA-N
Experiment: NCI tumour cell line growth inhibition, 48 h
Measured Attribute: TGI

compound="COc1cc(/C=C2\\CCC/C(=C\\c3ccc(OC(=O)CCCCC4CCSS4)c(OC)c3)C2=O)ccc1OC(=O)CCCCC1CCSS1 (stereo not given)" assayed_system=MDA-N measured_attribute=TGI observed_value="> 100 µM"
compound=C#CCCCCC#Cc1ccccc1C(=O)C=[N+]=[N-] assayed_system=MDA-N measured_attribute=TGI observed_value="> 100 µM"
compound=CCOP(=O)(CN1CCNCCN(CP(=O)(OCC)OCC)CC1)OCC assayed_system=MDA-N measured_attribute=TGI observed_value="> 100 µM"
compound="CCOC(=O)C(C)c1nc2cc(N3CCOCC3)c(F)cc2[nH]c1=O (stereo not given)" assayed_system=MDA-N measured_attribute=TGI observed_value="> 100 µM"
compound=COc1ccc2c(c1)c1c(C)c3cnccc3c(C)c1n2CCCN assayed_system=MDA-N measured_attribute=TGI observed_value="0.306 µM"
compound=Cc1ccc(N2CN3OC(=O)N(c4ccccc4)[C@@]3(c3ccccc3)C2)cc1 assayed_system=MDA-N measured_attribute=TGI observed_value="> 100 µM"
compound="CCN(CC)CC1CCCCN1CC(=O)N1c2ccccc2NC(=O)c2ccccc21 (stereo not given)" assayed_system=MDA-N measured_attribute=TGI observed_value="> 100 µM"
compound=Cc1ccc(-c2nc3cc(N4CCN(C)CC4)c(F)cc3[nH]2)cc1 assayed_system=MDA-N measured_attribute=TGI observed_value="95.7 µM"
compound=O=C(Nc1sccc1S(=O)(=O)c1ccc(Cl)cc1)c1ccc(Cl)cc1 assayed_system=MDA-N measured_attribute=TGI observed_value="> 100 µM"
compound=Cc1ccc(C(=O)CC(O)(C(F)(F)F)C(F)(F)F)cc1[N+](=O)[O-] assayed_system=MDA-N measured_attribute=TGI observed_value="28.2 µM"
compound=N#CCCC1(CCC#N)CCCCCCC(CCC#N)(CCC#N)C(=O)C1=O assayed_system=MDA-N measured_attribute=TGI observed_value="> 100 µM"
compound=CC1(C)Cc2c(c3ccccc3c3nc4c(nc23)c2c(c3ccccc34)OC(C)(C)C2)O1 assayed_system=MDA-N measured_attribute=TGI observed_value="> 100 µM"
compound="COc1cc(COC(=O)N2CSCC2C(=O)O)c([N+](=O)[O-])cc1OC (stereo not given)" assayed_system=MDA-N measured_attribute=TGI observed_value="> 100 µM"
compound="COC(=O)[C@]1(c2cc3ccccc3[nH]2)CC2CN(C(=O)OCc3ccccc3)C1C=C2OC (stereo not given in full)" assayed_system=MDA-N measured_attribute=TGI observed_value="> 100 µM"
compound="COc1ccc2cc1Oc1ccc(cc1)CC1c3cc(OC)c(cc3CCN1C)Oc1c(OC)c(OC)cc3c1C(C2)N(C)CC3 (stereo not given)" assayed_system=MDA-N measured_attribute=TGI observed_value="20.3 µM"
compound="COC(=O)C1=C(O)C(C(=O)OC)[C@]2(O)[C@@H](C(=O)OC)[C@H]1[C@H](C)[C@@H](c1ccccc1)[C@@H]2C(=O)OC (stereo not given in full)" assayed_system=MDA-N measured_attribute=TGI observed_value="> 100 µM"
compound=O=C1NC(=O)C(c2c[nH]c3cc(Br)ccc23)=C1c1cnc[nH]1 assayed_system=MDA-N measured_attribute=TGI observed_value="> 100 µM"
compound=CCOC(=O)CCSS(=O)(=O)c1ccccc1 assayed_system=MDA-N measured_attribute=TGI observed_value="> 100 µM"
compound=CC(=O)/C(=C/n1ccc(=O)[nH]c1=S)C(=O)Nc1ccccc1C assayed_system=MDA-N measured_attribute=TGI observed_value="> 100 µM"
compound=O=C1c2ccccc2C(=O)N1CCCC(=O)n1cc(F)c(=O)[nH]c1=O assayed_system=MDA-N measured_attribute=TGI observed_value="> 100 µM"
compound=COP(=O)(OC)/C(=C/c1cn(C(C)=O)c2ccccc12)NC(C)=O assayed_system=MDA-N measured_attribute=TGI observed_value="36.3 µM"
compound="C[C@@H](c1ccccc1)C(CC#N)[C@H]1CCC[C@]1(O)C#Cc1ccc2c(c1)OCO2 (stereo not given in full)" assayed_system=MDA-N measured_attribute=TGI observed_value="30.4 µM"
compound=CC(C)C[C@@H](NC(=O)[C@@H](Cc1cccc2ccccc12)NC(=O)N1CCOCC1)B(O)O assayed_system=MDA-N measured_attribute=TGI observed_value="41.8 µM"
compound=N#C/C(=C\Nc1ccccn1)C(=O)C1CC1 assayed_system=MDA-N measured_attribute=TGI observed_value="> 100 µM"
compound="CCOC(=O)C1(C)CCCc2sc(N)c(C#N)c21 (stereo not given)" assayed_system=MDA-N measured_attribute=TGI observed_value="> 100 µM"
compound=O=[N+]([O-])c1ccc2sc(C=Nc3ccc(O)cc3)cc2c1 assayed_system=MDA-N measured_attribute=TGI observed_value="80.6 µM"
compound=CN(C)c1ccc(/C=C(\NC(=O)c2ccccc2)C(=O)Nc2ccccc2C(=O)NCc2ccccc2)cc1 assayed_system=MDA-N measured_attribute=TGI observed_value="> 100 µM"
compound="CC1(c2ccccc2)CCN(C2CC2)CO1 (stereo not given)" assayed_system=MDA-N measured_attribute=TGI observed_value="31 µM"
compound="CC(C)CC(NC(=O)C(Cc1ccccc1)NC(=O)[C@H]1CC[C@H](NC(=O)C(Cc2ccc(OC(C)(C)C)cc2)NC(=O)OC(C)(C)C)C1)C(N)=O (stereo not given in full)" assayed_system=MDA-N measured_attribute=TGI observed_value="41.1 µM"
compound="Fc1cccc(F)c1C1SCc2nc3cc4ccccc4cc3n21 (stereo not given)" assayed_system=MDA-N measured_attribute=TGI observed_value="> 100 µM"
compound=Nc1nc2c(c(=O)[nH]1)CN(CCCN1CCOCC1)CN2 assayed_system=MDA-N measured_attribute=TGI observed_value="> 100 µM"
compound=COc1ccc(Nc2nc3cc(C(F)(F)F)ccc3n3cccc23)cc1OC assayed_system=MDA-N measured_attribute=TGI observed_value="29.3 µM"
compound=Oc1ccc[n+](Cc2ccccc2)c1 assayed_system=MDA-N measured_attribute=TGI observed_value="> 100 µM"
compound=Nc1ncnc2c1ccn2COC(CO)CO assayed_system=MDA-N measured_attribute=TGI observed_value="> 100 µM"
compound=O=C1C(Br)=C(C2=CC(=P(c3ccccc3)(c3ccccc3)c3ccccc3)C=C2)C(=O)C(Br)=C1C1=CC(=P(c2ccccc2)(c2ccccc2)c2ccccc2)C=C1 assayed_system=MDA-N measured_attribute=TGI observed_value="> 100 µM"
compound="NC(=S)C1=C(N)Oc2c(c(=O)oc3ccccc23)C1c1ccc(Br)cc1 (stereo not given)" assayed_system=MDA-N measured_attribute=TGI observed_value="> 100 µM"
compound="CC[C@H](C)[C@H]1NC(=O)[C@@H](NC(=O)[C@@H](CC(C)C)N(C)C(=O)C2CCCN2C(=O)[C@H](C)O)[C@@H](C)OC(=O)[C@@H]2Cc3ccccc3CN2C(=O)[C@@H]2CCCN2C(=O)[C@H](CC(C)C)NC(=O)[C@@H](C)C(=O)[C@H](C(C)C)OC(=O)C[C@@H]1O (stereo not given in full)" assayed_system=MDA-N measured_attribute=TGI observed_value="12.5 µM"
compound="COC(=O)C(=O)C(C(=O)C(=O)Nc1ccc([N+](=O)[O-])cc1[N+](=O)[O-])c1nc2ccc(Cl)cc2[nH]c1=O (stereo not given)" assayed_system=MDA-N measured_attribute=TGI observed_value="> 100 µM"
compound=COc1ccc(NC(=S)Nc2ccccc2)cc1 assayed_system=MDA-N measured_attribute=TGI observed_value="> 100 µM"
compound="CCOC(=O)CO/N=C\\C1=CC(=O)C2CC1C2(C)C (stereo not given)" assayed_system=MDA-N measured_attribute=TGI observed_value="> 100 µM"
